# Tested on: Trypanosoma cruzi
# measurement-notes: Percentage of activity against Trypanosoma cruzi at 1.56 uM
# Format: functional
The entries below come with measured Parasite load reduction values attached.
Report only the number, with the unit % understood.

Solved cases below.
COc1ccc2nc3cc(Cl)ccc3c(NCCCN(CCCNc3c4ccc(Cl)cc4nc4ccc(OC)cc34)C(=O)CNC(=O)OC(C)(C)C)c2c1: 0
COc1ccc2nc3cc(Cl)ccc3c(NCCCN(CCCNc3c4ccc(Cl)cc4nc4ccc(OC)cc34)C(=O)C(CC(C)C)NC(=O)OC(C)(C)C)c2c1 (centres undefined): 40
COc1ccc2nc3cc(Cl)ccc3c(NCCCN(CCCNc3c4ccc(Cl)cc4nc4ccc(OC)cc34)C(=O)C(CNC(=O)OCC3c4ccccc4-c4ccccc43)NC(=O)OC(C)(C)C)c2c1 (centres undefined): 0
COc1ccc2nc3cc(Cl)ccc3c(NCCCCCCCCCCNc3c4ccc(Cl)cc4nc4ccc(OC)cc34)c2c1: 0
COc1ccc2nc3cc(Cl)ccc3c(NCCCN(CCCNc3c4ccc(Cl)cc4nc4ccc(OC)cc34)C(=O)C(N)CN)c2c1 (centres undefined): 0

Input line: Which Parasite load reduction is reported for this compound? COc1ccc2nc3cc(Cl)ccc3c(NCCCCCCCCCCCCNc3c4ccc(Cl)cc4nc4ccc(OC)cc34)c2c1
Output line: 0

Input line: Please answer likewise for COc1ccc2nc3cc(Cl)ccc3c(NCCCCCCNc3c4ccc(Cl)cc4nc4ccc(OC)cc34)c2c1
Output line: 0

Input line: Please answer likewise for COc1ccc2nc3cc(Cl)ccc3c(NCCCN(CCCNc3c4ccc(Cl)cc4nc4ccc(OC)cc34)C(=O)CNC(=O)C(C)NC(=O)OC(C)(C)C)c2c1 (centres undefined)
Output line: 0

Input line: Please answer likewise for COc1ccc2nc3cc(Cl)ccc3c(NCCCN(CCCNc3c4ccc(Cl)cc4nc4ccc(OC)cc34)C(=O)CCN3CCNCC3)c2c1
Output line: 0

Input line: Please answer likewise for COc1ccc2nc3cc(Cl)ccc3c(NCCCN(CCCNc3c4ccc(Cl)cc4nc4ccc(OC)cc34)C(=O)C(CCCCN)NC(=O)OC(C)(C)C)c2c1 (centres undefined)
Output line: 0

Input line: Please answer likewise for COc1ccc2nc3cc(Cl)ccc3c(NCCCCNc3c4ccc(Cl)cc4nc4ccc(OC)cc34)c2c1
Output line: 90

Input line: Please answer likewise for COc1ccc2nc3cc(Cl)ccc3c(NCCCN(CCCNc3c4ccc(Cl)cc4nc4ccc(OC)cc34)C(=O)C(CN)NC(=O)OC(C)(C)C)c2c1 (centres undefined)
Output line: 0

Input line: Please answer likewise for COc1ccc2nc3cc(Cl)ccc3c(NCCCN(CCCNc3c4ccc(Cl)cc4nc4ccc(OC)cc34)C(=O)[C@@H](C)NC(=O)OC(C)(C)C)c2c1
Output line: 60

Input line: Please answer likewise for COc1ccc2nc3cc(Cl)ccc3c(NCCCN(CCCNc3c4ccc(Cl)cc4nc4ccc(OC)cc34)C(=O)C(CO)NC(=O)OC(C)(C)C)c2c1 (centres undefined)
Output line: 0

* * *

# System: Leishmania infantum
# measurement-notes: In Vitro evaluation for the percentage of activity towards Leishmania infantum at 12.5 uM Concentration
# Format: functional
endpoint: Percent inhibition of Leishmania infantum (%)
Report only the number, with the unit % understood.

Solved cases below.
COc1ccc2nc3cc(Cl)ccc3c(NCCCN3CCN(CCCNc4c5ccc(Cl)cc5nc5ccc(OC)cc45)CC3)c2c1: 0
COc1ccc2nc3cc(Cl)ccc3c(NCCCN(CCCNc3c4ccc(Cl)cc4nc4ccc(OC)cc34)C(=O)C(CC(=O)O)NC(=O)OC(C)(C)C)c2c1 (centres undefined): 0
COc1ccc2nc3cc(Cl)ccc3c(NCCCN(CCCNc3c4ccc(Cl)cc4nc4ccc(OC)cc34)C(=O)CNC(=O)OC(C)(C)C)c2c1: 80

Then this compound:
Input line: Which Percent inhibition of Leishmania infantum is reported for this compound? COc1ccc2nc3cc(Cl)ccc3c(NCCCN(CCCNc3c4ccc(Cl)cc4nc4ccc(OC)cc34)C(=O)C(COC(C)=O)NC(=O)OC(C)(C)C)c2c1 (centres undefined)
Output line: 90

* * *

# Tested on: Trypanosoma cruzi
# measurement-notes: Percentage of activity against Trypanosoma cruzi at 6.25 uM Concentration
# Format: functional
endpoint: Reduction of T. cruzi parasite load (%)
Report only the number, with the unit % understood.

COc1ccc2nc3cc(Cl)ccc3c(NCCCCN(CCCNc3c4ccc(Cl)cc4nc4ccc(OC)cc34)C(=O)C(C)NC(=O)OC(C)(C)C)c2c1 (centres undefined): 70

Then this compound:
Input line: Which Reduction of T. cruzi parasite load is reported for this compound? COc1ccc2nc3cc(Cl)ccc3c(NCCN(CCNc3c4ccc(Cl)cc4nc4ccc(OC)cc34)C(=O)C(C)NC(=O)OC(C)(C)C)c2c1 (centres undefined)
Output line: 40

* * *

# Test system: Trypanosoma cruzi
# measurement-notes: Percentage of activity against Trypanosoma cruzi at 6.25 uM Concentration
# Assay type: functional
The entries below come with measured Reduction of T. cruzi parasite load values attached.
Report only the number, with the unit % understood.

Solved cases below.
COc1ccc2nc3cc(Cl)ccc3c(NCCCN(CCCNc3c4ccc(Cl)cc4nc4ccc(OC)cc34)C(=O)C(CC(=O)OCC3c4ccccc4-c4ccccc43)NC(=O)OC(C)(C)C)c2c1 (stereo unspecified): 0
COc1ccc2nc3cc(Cl)ccc3c(NCCCN(CCCNc3c4ccc(Cl)cc4nc4ccc(OC)cc34)C(=O)C(CNC(=O)OCC3c4ccccc4-c4ccccc43)NC(=O)OC(C)(C)C)c2c1 (stereo unspecified): 90
COc1ccc2nc3cc(Cl)ccc3c(NCCCN(CCCNc3c4ccc(Cl)cc4nc4ccc(OC)cc34)C(=O)CNC(=O)OC(C)(C)C)c2c1: 40
COc1ccc2nc3cc(Cl)ccc3c(NCCCN(CCCNc3c4ccc(Cl)cc4nc4ccc(OC)cc34)C(=O)C(CC(=O)OC3CCCCC3)NC(=O)OC(C)(C)C)c2c1 (stereo unspecified): 70
COc1ccc2nc3cc(Cl)ccc3c(NCCCN(CCCNc3c4ccc(Cl)cc4nc4ccc(OC)cc34)C(=O)CCC(=O)N3CCOCC3)c2c1: 0

Then this compound:
Input line: Which Reduction of T. cruzi parasite load is reported for this compound? COc1ccc2nc3cc(Cl)ccc3c(NCCCN(CCCNc3c4ccc(Cl)cc4nc4ccc(OC)cc34)C(=O)C(CC(=O)O)NC(=O)OC(C)(C)C)c2c1 (stereo unspecified)
Output line: 0

* * *

# Tested on: Plasmodium falciparum
# measurement-notes: Parasite growth inhibition against Plasmodium falciparum GP1
# Type: functional, organism-based
The entries below come with measured pIC50 values attached.
Quick note: pIC50 means taking -log10 of the concentration in moles per liter.

COc1ccc2nc3cc(Cl)ccc3c(NCCCN(CCCNc3c4ccc(Cl)cc4nc4ccc(OC)cc34)C(=O)C(CC(C)C)NC(=O)OC(C)(C)C)c2c1 (stereo not given): 7.20
COc1ccc2nc3cc(Cl)ccc3c(NCCCN3CCN(CCCNc4c5ccc(Cl)cc5nc5ccc(OC)cc45)CC3)c2c1: 7.96
COc1ccc2nc3cc(Cl)ccc3c(NCCCN(CCCNc3c4ccc(Cl)cc4nc4ccc(OC)cc34)C(=O)C(C)NC(=O)OC(C)(C)C)c2c1 (stereo not given): 7.46
COc1ccc2nc3cc(Cl)ccc3c(NCCCN(CCCNc3c4ccc(Cl)cc4nc4ccc(OC)cc34)C(=O)C(NC(=O)OC(C)(C)C)C(C)C)c2c1 (stereo not given): 7.08

Then this compound:
Input line: Which pIC50 is reported for this compound? COc1ccc2nc3cc(Cl)ccc3c(NCCCN(CCCNc3c4ccc(Cl)cc4nc4ccc(OC)cc34)C(=O)[C@@H](C)NC(=O)OC(C)(C)C)c2c1
Output line: 7.18

* * *

The entries below come with measured cytotoxicity at 3.13 µM values attached.
# Test system: MRC5
# measurement-notes: Cytotoxicity on MRC-5 cells at 3.13 uM
# Assay type: functional
# condition-label: Homo sapiens

COc1ccc2nc3cc(Cl)ccc3c(NCCN(CCNc3c4ccc(Cl)cc4nc4ccc(OC)cc34)C(=O)C(C)NC(=O)OC(C)(C)C)c2c1 (centres undefined): 0%
COc1ccc2nc3cc(Cl)ccc3c(NCCCN(CCCNc3c4ccc(Cl)cc4nc4ccc(OC)cc34)C(=O)C(CCCCN)NC(=O)OC(C)(C)C)c2c1 (centres undefined): 0%
COc1ccc2nc3cc(Cl)ccc3c(NCCCCNCCCNc3c4ccc(Cl)cc4nc4ccc(OC)cc34)c2c1: 100%
COc1ccc2nc3cc(Cl)ccc3c(NCCCCCCNc3c4ccc(Cl)cc4nc4ccc(OC)cc34)c2c1: 20%

Input line: Which cytotoxicity at 3.13 µM is reported for this molecule? COc1ccc2nc3cc(Cl)ccc3c(NCCCN(CCCNc3c4ccc(Cl)cc4nc4ccc(OC)cc34)C(=O)C(N)CN)c2c1 (centres undefined)
Output line: 0%

Input line: Please answer likewise for COc1ccc2nc3cc(Cl)ccc3c(NCCCNCCCNc3c4ccc(Cl)cc4nc4ccc(OC)cc34)c2c1
Output line: 100%

* * *

# System: Trypanosoma cruzi
# measurement-notes: Percentage of activity against Trypanosoma cruzi at 1.56 uM
# Type: functional
endpoint: Parasite load reduction (%)
Report only the number, with the unit % understood.

Solved cases below.
COc1ccc2nc3cc(Cl)ccc3c(NCCCNCCCNc3c4ccc(Cl)cc4nc4ccc(OC)cc34)c2c1: 60
COc1ccc2nc3cc(Cl)ccc3c(NCCCN(CCCNc3c4ccc(Cl)cc4nc4ccc(OC)cc34)C(=O)C(CC(=O)O)NC(=O)OC(C)(C)C)c2c1 (stereo unspecified): 0
COc1ccc2nc3cc(Cl)ccc3c(NCCCN(CCCNc3c4ccc(Cl)cc4nc4ccc(OC)cc34)C(=O)C(CNC(=O)OC(C)(C)C)NC(=O)OC(C)(C)C)c2c1 (stereo unspecified): 0

Input line: Please provide the recorded Parasite load reduction for COc1ccc2nc3cc(Cl)ccc3c(NCCCN(CCCNc3c4ccc(Cl)cc4nc4ccc(OC)cc34)C(=O)C(CC(=O)OC3CCCCC3)NC(=O)OC(C)(C)C)c2c1 (stereo unspecified) , tested on Trypanosoma cruzi.
Output line: 0

Input line: Please answer likewise for COc1ccc2nc3cc(Cl)ccc3c(NCCCCCCCCNc3c4ccc(Cl)cc4nc4ccc(OC)cc34)c2c1
Output line: 70

Input line: Please answer likewise for COc1ccc2nc3cc(Cl)ccc3c(NCCCN(CCCNc3c4ccc(Cl)cc4nc4ccc(OC)cc34)C(=O)CCN3CCOCC3)c2c1
Output line: 40
